Tested on: Mycobacterium tuberculosis
testSummary: Cornell M. t heat shock assay; note: in the data most compounds retested in dose-response had high values
Format: functional, organism-based
Set-up: dose or concentration left out as unconfirmed
The whole screen tested about 69,000 compounds, of which about 950 (1.4%) showed an effect of 50% or more. What follows is part of a selection rich in strong results, with near analogues and random picks from the rest.
endpointName: Percent Effect (%)
// units = %; emit number, no label

Q: Given the entry Cl.c1cnc(Nc2cncc(C3CCCN3)n2)cn1 (configuration not stated) , report its measured Percent Effect.
A: 54.88

Q: Given the entry CCOCC1CN(C2CCCC2)Cc2cnn(CC3CCOCC3)c21.O=C(O)C(F)(F)F.O=C(O)C(F)(F)F (configuration not stated) , report its measured Percent Effect.
A: -13.36

Q: Given the entry Cc1c(C2N3C[C@]4(C(C)C)CN2C[C@](C(C)C)(C3)C4=O)[nH]c(=O)[nH]c1=O (some centres not stated) , report its measured Percent Effect.
A: 1.038

Q: Given the entry CC(=O)Nc1nccn1Cc1ccccc1Cl , report its measured Percent Effect.
A: 63.7

Q: Given the entry Cl.c1nnc(Nc2cncc(C3CCCN3)n2)s1 (configuration not stated) , report its measured Percent Effect.
A: 104.6

Q: Given the entry CC[C@]12CN3C[C@](CC)(CN(C1)C3c1[nH]c(=O)[nH]c(=O)c1C)C2=O (some centres not stated) , report its measured Percent Effect.
A: 72.7

Q: Given the entry COC1CN(C(=O)CC(C)(C)C)CCC(=O)N(C)c2ccccc21 (configuration not stated) , report its measured Percent Effect.
A: 48.93

Q: Given the entry CC(OCC1CC1)C(=O)Nc1nccn1Cc1ccccc1 (configuration not stated) , report its measured Percent Effect.
A: 81.58

Q: Given the entry Cc1nc(Nc2ncc(C)s2)cc(C2CCCN2)n1.Cl (configuration not stated) , report its measured Percent Effect.
A: 6.055

Q: Given the entry COc1ccccc1N1CCN(C(=O)Cn2nccc2C)CC1(C)C , report its measured Percent Effect.
A: 90.85

Q: Given the entry Cc1nc(Nc2cnccn2)cc(C2CCCN2)n1.Cl (configuration not stated) , report its measured Percent Effect.
A: -30.38

Q: Given the entry CC(OCC1CC1)C(=O)Nc1ccn(Cc2ccccc2)n1 (configuration not stated) , report its measured Percent Effect.
A: -11.4

Q: Given the entry Cc1ccsc1C(=O)N1CC[C@@H](N(C)C)[C@@H]1Cc1cnn(C)c1.O=C(O)C(F)(F)F , report its measured Percent Effect.
A: -5.648

Q: Given the entry Cn1ccnc1CN1CCC2(CC1)CCN(c1ccccc1)C2=O.O=C(O)C(F)(F)F , report its measured Percent Effect.
A: 8.178

Q: Given the entry COC1CN(C(=O)CC2CCCC2)CCC(=O)N(C)c2ccccc21 (configuration not stated) , report its measured Percent Effect.
A: 50.44

Q: Given the entry CC(C)C[C@H](N)c1nnc(SCC(N)=O)o1.Cl , report its measured Percent Effect.
A: -14.25

Q: Given the entry Cc1c(C2N3C[C@]4(C)CN2C[C@](C)(C3)C4=O)[nH]c(=O)[nH]c1=O (some centres not stated) , report its measured Percent Effect.
A: 74.22

Q: Given the entry O=C(O)C(F)(F)F.O=C(c1cccnc1)N1CCc2ncnc(C3CCOC3)c2CC1 (configuration not stated) , report its measured Percent Effect.
A: 8.544

Q: Given the entry Cc1ccc2c(n1)N(Cc1cccnc1)CCN(C(=O)C1CC1)C2.O=C(O)C(F)(F)F.O=C(O)C(F)(F)F , report its measured Percent Effect.
A: -27.88

Q: Given the entry O=S(=O)(CCO)CCc1ccccc1Cl , report its measured Percent Effect.
A: 17.45

Q: Given the entry Cc1nc(Nc2nnc(C)s2)cc(C2CCCN2)n1.Cl (configuration not stated) , report its measured Percent Effect.
A: -7.337

Q: Given the entry O=C(NCC1CC1)[C@H]1C[C@H]2OCC[C@H]2N(CCc2ccccc2)C1.O=C(O)C(F)(F)F , report its measured Percent Effect.
A: -0.2328

Cited source for all entries: ChEMBL document CHEMBL3988442
